Test system: 953936-095-R-J2-PDC spheroids with HUVEC/MSC, viability
assay protocol: Anticancer human tumor 953936-095-R-J2-PDC patient-derived cervical squamous cell carcinoma cell line growth inhibition [PI3K]
run conditions: second compound 0.1 µM; first compound 0.1 µM; active compounds read low
test readout: viability, T/C (%)
Record the value in %, omitting the unit from your answer.

Inquiry: Quick one: viability, T/C of C#Cc1c(F)ccc2cc(O)cc(-c3ncc4c(N5CC6CCC(C5)N6)nc(OCC56CCCN5CC(F)C6)nc4c3F)c12 (stereo not drawn) + CC(Nc1ncnc2nc[nH]c12)c1cc2cccc(Cl)c2c(=O)n1-c1ccccc1 ?
Reply text: 98.3

Inquiry: Quick one: viability, T/C of CC(Cn1ccc(-c2ccc(C#N)c(Cl)c2)n1)NC(=O)c1cc(C(C)O)[nH]n1 (stereo not drawn) + CC(Nc1ccc2c(c1)OCCn1cc(N3C(=O)OCC3C(F)F)nc1-2)C(N)=O ?
Reply text: 56.3

Inquiry: Quick one: viability, T/C of C[C@@H](NC(=O)c1ncnc(N)c1Cl)c1ncc(C(=O)Nc2cc(C(F)(F)F)c(Cl)cn2)s1 + CC(Nc1ccc2c(c1)OCCn1cc(N3C(=O)OCC3C(F)F)nc1-2)C(N)=O ?
Reply text: 56.5

---

Test system: 953936-095-R-J2-PDC spheroids with HUVEC/MSC, viability
assay protocol: Anticancer human tumor 953936-095-R-J2-PDC cell line growth inhibition [PI3K]; active means viability on the fitted dose curve at most 10% of control; inactive means the rest;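 further: spheroids exposed to compounds for seven days before read-out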
run conditions: second compound 1 µM; first compound 0.316 µM
Answer with one of the outcomes given here: True = active, False = inactive

Inquiry: Dear all, I need the recorded test outcome for CC(C)NCC(C(=O)N1CCN(c2ncnc3c2C(C)CC3O)CC1)c1ccc(Cl)cc1 (stereo unspecified) + COc1c(OCCCN2CCOCC2)ccc2c3n(c(=NC(=O)c4cnc(N)nc4)nc12)CCN3 , thank you.
Reply text: True

Inquiry: Dear all, I need the recorded test outcome for CCN1CCN(Cc2ccc(Nc3ncc(F)c(-c4cc(F)c5nc(C)n(C(C)C)c5c4)n3)nc2)CC1 + CC(Nc1ccc2c(c1)OCCn1cc(N3C(=O)OCC3C(F)F)nc1-2)C(N)=O , thank you.
Reply text: False

Inquiry: Dear all, I need the recorded test outcome for CCN1CCN(Cc2ccc(Nc3ncc(F)c(-c4cc(F)c5nc(C)n(C(C)C)c5c4)n3)nc2)CC1 + COc1c(OCCCN2CCOCC2)ccc2c3n(c(=NC(=O)c4cnc(N)nc4)nc12)CCN3 , thank you.
Reply text: True

Inquiry: Dear all, I need the recorded test outcome for CC(Cn1ccc(-c2ccc(C#N)c(Cl)c2)n1)NC(=O)c1cc(C(C)O)[nH]n1 (stereo unspecified) + CC(Nc1ncnc2nc[nH]c12)c1cc2cccc(Cl)c2c(=O)n1-c1ccccc1 , thank you.
Reply text: False

Inquiry: Dear all, I need the recorded test outcome for C[C@@H](NC(=O)c1ncnc(N)c1Cl)c1ncc(C(=O)Nc2cc(C(F)(F)F)c(Cl)cn2)s1 + CC(Nc1ncnc2nc[nH]c12)c1cc2cccc(Cl)c2c(=O)n1-c1ccccc1 , thank you.
Reply text: False

Inquiry: Dear all, I need the recorded test outcome for CNC(=O)c1ccc(N2C(=S)N(c3ccc(C#N)c(C(F)(F)F)c3)C(=O)C2(C)C)cc1F + CC(Nc1ncnc2nc[nH]c12)c1cc2cccc(Cl)c2c(=O)n1-c1ccccc1 , thank you.
Reply text: False

Inquiry: Dear all, I need the recorded test outcome for Cn1ncc(Cl)c1-c1cc(C(=O)NC(CN)Cc2cccc(F)c2)sc1Cl (stereo unspecified) + CC(Nc1ncnc2nc[nH]c12)c1cc2cccc(Cl)c2c(=O)n1-c1ccccc1 , thank you.
Reply text: False

Inquiry: Dear all, I need the recorded test outcome for CC(C)NCC(C(=O)N1CCN(c2ncnc3c2C(C)CC3O)CC1)c1ccc(Cl)cc1 (stereo unspecified) + Cc1nc(NC(=O)N2CCCC2C(N)=O)sc1-c1ccnc(C(C)(C)C(F)(F)F)c1 , thank you.
Reply text: False

Inquiry: Dear all, I need the recorded test outcome for CCN1CCN(Cc2ccc(Nc3ncc(F)c(-c4cc(F)c5nc(C)n(C(C)C)c5c4)n3)nc2)CC1 + Cc1nc(NC(=O)N2CCCC2C(N)=O)sc1-c1ccnc(C(C)(C)C(F)(F)F)c1 , thank you.
Reply text: False

Inquiry: Dear all, I need the recorded test outcome for Cn1nccc1Nc1nccc(-c2ccn(C(CO)c3ccc(Cl)c(F)c3)c(=O)c2)n1 (stereo unspecified) + Cc1nc(NC(=O)N2CCCC2C(N)=O)sc1-c1ccnc(C(C)(C)C(F)(F)F)c1 , thank you.
Reply text: False

Inquiry: Dear all, I need the recorded test outcome for CC(C)NCC(C(=O)N1CCN(c2ncnc3c2C(C)CC3O)CC1)c1ccc(Cl)cc1 (stereo unspecified) + CC(Nc1ncnc2nc[nH]c12)c1cc2cccc(Cl)c2c(=O)n1-c1ccccc1 , thank you.
Reply text: False

Inquiry: Dear all, I need the recorded test outcome for CNC(=O)c1ccc(N2C(=S)N(c3ccc(C#N)c(C(F)(F)F)c3)C(=O)C2(C)C)cc1F + COc1c(OCCCN2CCOCC2)ccc2c3n(c(=NC(=O)c4cnc(N)nc4)nc12)CCN3 , thank you.
Reply text: True

Inquiry: Dear all, I need the recorded test outcome for CC(C)NCC(C(=O)N1CCN(c2ncnc3c2C(C)CC3O)CC1)c1ccc(Cl)cc1 (stereo unspecified) + CC(Nc1ccc2c(c1)OCCn1cc(N3C(=O)OCC3C(F)F)nc1-2)C(N)=O , thank you.
Reply text: False

Inquiry: Dear all, I need the recorded test outcome for CNC(=O)c1ccc(N2C(=S)N(c3ccc(C#N)c(C(F)(F)F)c3)C(=O)C2(C)C)cc1F + CC(Nc1ccc2c(c1)OCCn1cc(N3C(=O)OCC3C(F)F)nc1-2)C(N)=O , thank you.
Reply text: False

Inquiry: Dear all, I need the recorded test outcome for Cn1ncc(Cl)c1-c1cc(C(=O)NC(CN)Cc2cccc(F)c2)sc1Cl (stereo unspecified) + COc1c(OCCCN2CCOCC2)ccc2c3n(c(=NC(=O)c4cnc(N)nc4)nc12)CCN3 , thank you.
Reply text: True

Inquiry: Dear all, I need the recorded test outcome for C=CC(=O)N1CCN(c2nc(=O)n(-c3c(C)ccnc3C(C)C)c3nc(-c4c(O)cccc4F)c(F)cc23)C(C)C1 (stereo unspecified) + COc1c(OCCCN2CCOCC2)ccc2c3n(c(=NC(=O)c4cnc(N)nc4)nc12)CCN3 , thank you.
Reply text: True

Inquiry: Dear all, I need the recorded test outcome for C[C@@H](NC(=O)c1ncnc(N)c1Cl)c1ncc(C(=O)Nc2cc(C(F)(F)F)c(Cl)cn2)s1 + CC(Nc1ccc2c(c1)OCCn1cc(N3C(=O)OCC3C(F)F)nc1-2)C(N)=O , thank you.
Reply text: False

Inquiry: Dear all, I need the recorded test outcome for C=CC(=O)N1CCN(c2nc(=O)n(-c3c(C)ccnc3C(C)C)c3nc(-c4c(O)cccc4F)c(F)cc23)C(C)C1 (stereo unspecified) + CC(Nc1ccc2c(c1)OCCn1cc(N3C(=O)OCC3C(F)F)nc1-2)C(N)=O , thank you.
Reply text: False

Inquiry: Dear all, I need the recorded test outcome for CCCS(=O)(=O)Nc1ccc(F)c(C(=O)c2c[nH]c3ncc(-c4ccc(Cl)cc4)cc23)c1F + CC(Nc1ccc2c(c1)OCCn1cc(N3C(=O)OCC3C(F)F)nc1-2)C(N)=O , thank you.
Reply text: False

Inquiry: Dear all, I need the recorded test outcome for Cn1nccc1Nc1nccc(-c2ccn(C(CO)c3ccc(Cl)c(F)c3)c(=O)c2)n1 (stereo unspecified) + COc1c(OCCCN2CCOCC2)ccc2c3n(c(=NC(=O)c4cnc(N)nc4)nc12)CCN3 , thank you.
Reply text: True

Inquiry: Dear all, I need the recorded test outcome for CC1(C)CCC(CN2CCN(c3ccc(C(=O)NS(=O)(=O)c4ccc(NCC5CCOCC5)c([N+](=O)[O-])c4)c(Oc4cnc5[nH]ccc5c4)c3)CC2)=C(c2ccc(Cl)cc2)C1 + Cc1nc(NC(=O)N2CCCC2C(N)=O)sc1-c1ccnc(C(C)(C)C(F)(F)F)c1 , thank you.
Reply text: False

---

Hi there, I'd appreciate the recorded viability, T/C for every entry that follows.
System: 953936-095-R-J2-PDC spheroids with HUVEC/MSC, viability
assay protocol: Anticancer human tumor 953936-095-R-J2-PDC cell line growth inhibition [PI3K];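 further: spheroids exposed to compounds for seven days before read-out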
run conditions: second compound 0.01 µM; first compound 3.16 µM; active compounds read low
Record the value in %, omitting the unit from your answer.

Inquiry: Form entry - test system: 953936-095-R-J2-PDC spheroids with HUVEC/MSC, viability; read-out: viability, T/C; molecule: C[C@@H](NC(=O)c1ncnc(N)c1Cl)c1ncc(C(=O)Nc2cc(C(F)(F)F)c(Cl)cn2)s1 + CC(Nc1ccc2c(c1)OCCn1cc(N3C(=O)OCC3C(F)F)nc1-2)C(N)=O
Reply text: 107

Inquiry: Form entry - test system: 953936-095-R-J2-PDC spheroids with HUVEC/MSC, viability; read-out: viability, T/C; molecule: CC1(C)CCC(CN2CCN(c3ccc(C(=O)NS(=O)(=O)c4ccc(NCC5CCOCC5)c([N+](=O)[O-])c4)c(Oc4cnc5[nH]ccc5c4)c3)CC2)=C(c2ccc(Cl)cc2)C1 + CC(Nc1ccc2c(c1)OCCn1cc(N3C(=O)OCC3C(F)F)nc1-2)C(N)=O
Reply text: 115

Inquiry: Form entry - test system: 953936-095-R-J2-PDC spheroids with HUVEC/MSC, viability; read-out: viability, T/C; molecule: CC(Cn1ccc(-c2ccc(C#N)c(Cl)c2)n1)NC(=O)c1cc(C(C)O)[nH]n1 (centres undefined) + COc1c(OCCCN2CCOCC2)ccc2c3n(c(=NC(=O)c4cnc(N)nc4)nc12)CCN3
Reply text: 78.9

Inquiry: Form entry - test system: 953936-095-R-J2-PDC spheroids with HUVEC/MSC, viability; read-out: viability, T/C; molecule: CC(C)NCC(C(=O)N1CCN(c2ncnc3c2C(C)CC3O)CC1)c1ccc(Cl)cc1 (centres undefined) + CC(Nc1ccc2c(c1)OCCn1cc(N3C(=O)OCC3C(F)F)nc1-2)C(N)=O
Reply text: 20.9

Inquiry: Form entry - test system: 953936-095-R-J2-PDC spheroids with HUVEC/MSC, viability; read-out: viability, T/C; molecule: Cn1ncc(Cl)c1-c1cc(C(=O)NC(CN)Cc2cccc(F)c2)sc1Cl (centres undefined) + COc1c(OCCCN2CCOCC2)ccc2c3n(c(=NC(=O)c4cnc(N)nc4)nc12)CCN3
Reply text: 14.4

Inquiry: Form entry - test system: 953936-095-R-J2-PDC spheroids with HUVEC/MSC, viability; read-out: viability, T/C; molecule: CC(C)NCC(C(=O)N1CCN(c2ncnc3c2C(C)CC3O)CC1)c1ccc(Cl)cc1 (centres undefined) + COc1c(OCCCN2CCOCC2)ccc2c3n(c(=NC(=O)c4cnc(N)nc4)nc12)CCN3
Reply text: 16.6

Inquiry: Form entry - test system: 953936-095-R-J2-PDC spheroids with HUVEC/MSC, viability; read-out: viability, T/C; molecule: Cn1nccc1Nc1nccc(-c2ccn(C(CO)c3ccc(Cl)c(F)c3)c(=O)c2)n1 (centres undefined) + COc1c(OCCCN2CCOCC2)ccc2c3n(c(=NC(=O)c4cnc(N)nc4)nc12)CCN3
Reply text: 59.4

Inquiry: Form entry - test system: 953936-095-R-J2-PDC spheroids with HUVEC/MSC, viability; read-out: viability, T/C; molecule: CNC(=O)c1ccc(N2C(=S)N(c3ccc(C#N)c(C(F)(F)F)c3)C(=O)C2(C)C)cc1F + COc1c(OCCCN2CCOCC2)ccc2c3n(c(=NC(=O)c4cnc(N)nc4)nc12)CCN3
Reply text: 74.6

Inquiry: Form entry - test system: 953936-095-R-J2-PDC spheroids with HUVEC/MSC, viability; read-out: viability, T/C; molecule: C#Cc1c(F)ccc2cc(O)cc(-c3ncc4c(N5CC6CCC(C5)N6)nc(OCC56CCCN5CC(F)C6)nc4c3F)c12 (centres undefined) + CC(Nc1ccc2c(c1)OCCn1cc(N3C(=O)OCC3C(F)F)nc1-2)C(N)=O
Reply text: 64.8

Entry source: PubChem BioAssay AID1963971
